Experiment: Ground state depletion (GSDIM) pump-probe measurements in PVA matrix
Format: physicochemical
Conditions: PVA matrix; pump-pulse power density per dye 14-110 kW/cm^2
MEASURED_QUANTITY: Rfl, t=0, residual fluorescence after the pump-pulse (%)
Reply with just the number (in %).

Request: Any idea what Rfl, t=0, residual fluorescence after the pump-pulse was measured for `COC(=O)CCN(C)C(=O)c1ccccc1-c1c2ccc(=NCC(F)(F)F)cc-2oc2cc(NCC(F)(F)F)ccc12` ?
Response: 8

Request: Could you do the same for `O=C(O)c1ccc2c(c1)C(=O)OC21c2ccc(NCC(F)(F)F)c(S(=O)(=O)O)c2Oc2c1ccc(NCC(F)(F)F)c2S(=O)(=O)O` , please?
Response: 25

Request: // next record CN(CCC(=O)O)C(=O)c1ccccc1-c1c2ccc(=NCC(F)(F)F)c(S(=O)(=O)O)c-2oc2c(S(=O)(=O)O)c(NCC(F)(F)F)ccc12 [Compound 16a]
Response: 25

Request: How about this compound: `Nc1c(F)cc2c(c1S(=O)(=O)O)Oc1c(cc(F)c(N)c1S(=O)(=O)O)C21OC(=O)c2ccccc21`
Response: 8

----------
Listed here are compounds together with their documented ABSORPTION λMAX.
Assay: Spectral properties of the fluorinated rhodamines (absorption, emission, quantum yield, lifetime)
Type: physicochemical
Details: aqueous buffer at pH 7
Express your answer in nm, writing the number without its unit.

> print(dat)
                                   compound  recorded.measurement
1  O=C(O)c1ccc2c(c1)C1(OC2=O)c2ccc(NCC(F)(F)F)cc2Oc2cc(NCC(F)(F)F)ccc21 [15 (43-COOH)]                   501
2  O=C(O)c1ccccc1-c1c2ccc(=NCC(F)(F)F)c(S(=O)(=O)O)c-2oc2c(S(=O)(=O)O)c(NCC(F)(F)F)ccc12 [Compound 16]                   499
3  CNc1cc2c(cc1F)C1(OC(=O)c3ccccc31)c1cc(F)c(NC)cc1O2 [Compound 23, 2,7-Difluoro-N,N′-dimethylrhodamine]                   513

Below: the item to evaluate.
Request: Recorded ABSORPTION λMAX of O=C(O)c1ccc2c(c1)C(=O)OC21c2ccc(NCC(F)(F)F)c(S(=O)(=O)O)c2Oc2c1ccc(NCC(F)(F)F)c2S(=O)(=O)O [Compound 17] , please.
Response: 501

----------
# EMISSION λMAX per entry
Assay: Spectral properties of the fluorinated rhodamines (absorption, emission, quantum yield, lifetime)
Assay type: physicochemical
Conditions: methanol
Write the answer as a number in nm, unit excluded.

Before answering, review these 3 worked examples.
> print(dat)
                                   compound  measured.quantity  recorded.measurement
1  CNc1cc2c(cc1F)C1(OC(=O)c3ccccc31)c1cc(F)c(NC)cc1O2      EMISSION λMAX                   537
2  O=C(O)c1ccc2c(c1)C1(OC2=O)c2ccc(NCC(F)(F)F)cc2Oc2cc(NCC(F)(F)F)ccc21 [15 (42-COOH)]      EMISSION λMAX                   524
3  Nc1cc2c(cc1F)C1(OC(=O)c3ccccc31)c1cc(F)c(N)cc1O2      EMISSION λMAX                   522

Request: Entry under review: CN(CCC(=O)O)C(=O)c1ccccc1-c1c2ccc(=NCC(F)(F)F)cc-2oc2cc(NCC(F)(F)F)ccc12.Cl [Compound 14a] . Reported EMISSION λMAX?
Response: 534

Request: Ok, now `Nc1c(F)cc2c(c1S(=O)(=O)O)Oc1c(cc(F)c(N)c1S(=O)(=O)O)C21OC(=O)c2ccccc21`
Response: 514

----------
Experiment: Spectral properties of the fluorinated rhodamines (absorption, emission, quantum yield, lifetime)
Type: physicochemical
Conditions: aqueous buffer at pH 7
MEASURED_QUANTITY: ΦFL
Respond numerically, and do not add a unit to the figure.

> print(dat)
                                   compound  recorded.measurement
1  CN(CCC(=O)O)C(=O)c1ccccc1-c1c2ccc(=NCC(F)(F)F)cc-2oc2cc(NCC(F)(F)F)ccc12.Cl [Compound 14a]                  0.86
2  Nc1c(F)cc2c(c1S(=O)(=O)O)Oc1c(cc(F)c(N)c1S(=O)(=O)O)C21OC(=O)c2ccccc21                  0.89
3  O=C(O)c1ccc2c(c1)C1(OC2=O)c2ccc(NCC(F)(F)F)cc2Oc2cc(NCC(F)(F)F)ccc21 [15 (43-COOH)]                  0.93
4  O=C(O)c1ccc2c(c1)C(=O)OC21c2ccc(NCC(F)(F)F)c(S(=O)(=O)O)c2Oc2c1ccc(NCC(F)(F)F)c2S(=O)(=O)O                  0.96

Request: Quick check: ΦFL of `O=C1OC2(c3cc(F)c(NCC(F)(F)F)cc3Oc3cc(NCC(F)(F)F)c(F)cc32)c2ccccc21` ?
Response: 1.00

Request: Also need CN(CCC(=O)O)C(=O)c1ccccc1-c1c2ccc(=NCC(F)(F)F)c(S(=O)(=O)O)c-2oc2c(S(=O)(=O)O)c(NCC(F)(F)F)ccc12 [Compound 16a] , thanks.
Response: 0.86

----------
Assay: Ground state depletion (GSDIM) pump-probe measurements in PVA matrix
Format: physicochemical
Details: PVA matrix; at one spot with the given power density
Γfl, remaining fluorescence after 5 measurement cycles by entry:
Please format your answer as a value with the unit trailing.

Some molecules with recorded Γfl, remaining fluorescence after 5 measurement cycles:
> print(dat)
                                   molecule  recorded.measurement
1  CN(CCC(=O)O)C(=O)c1ccccc1-c1c2ccc(=NCC(F)(F)F)c(S(=O)(=O)O)c-2oc2c(S(=O)(=O)O)c(NCC(F)(F)F)ccc12 [Compound 16a]                   35%
2  COC(=O)CCN(C)C(=O)c1ccccc1-c1c2ccc(=NCC(F)(F)F)cc-2oc2cc(NCC(F)(F)F)ccc12                   90%
3  O=C(O)c1ccc2c(c1)C(=O)OC21c2ccc(NCC(F)(F)F)c(S(=O)(=O)O)c2Oc2c1ccc(NCC(F)(F)F)c2S(=O)(=O)O                   40%

Request: Tell me the measured Γfl, remaining fluorescence after 5 measurement cycles of `Nc1c(F)cc2c(c1S(=O)(=O)O)Oc1c(cc(F)c(N)c1S(=O)(=O)O)C21OC(=O)c2ccccc21` , please.
Response: 20%

----------
Experiment: Spectral properties of the fluorinated rhodamines (absorption, emission, quantum yield, lifetime)
Type: physicochemical
Details: methanol
MEASURED_QUANTITY: ABSORPTION λMAX (nm)
Number only, in nm; omit the unit.

Worked examples follow.
> print(dat)
                                   compound  measured.quantity  recorded.measurement
1  Nc1cc2c(cc1F)C1(OC(=O)c3ccccc31)c1cc(F)c(N)cc1O2 [Compound 10, 2,7-Difluororhodamine]    ABSORPTION λMAX                   498
2  O=C(O)c1ccc2c(c1)C1(OC2=O)c2ccc(NCC(F)(F)F)cc2Oc2cc(NCC(F)(F)F)ccc21 [15 (43-COOH)]    ABSORPTION λMAX                   497
3  O=C(O)c1ccccc1-c1c2ccc(=NCC(F)(F)F)c(S(=O)(=O)O)c-2oc2c(S(=O)(=O)O)c(NCC(F)(F)F)ccc12 [Compound 16]    ABSORPTION λMAX                   507

Request: Which ABSORPTION λMAX is reported for this compound? CN(C)c1cc2c(cc1F)C1(OC(=O)c3ccccc31)c1cc(F)c(N(C)C)cc1O2 [Compound 27]
Response: 546

Request: Try this compound next: CN(CCC(=O)O)C(=O)c1ccccc1-c1c2ccc(=NCC(F)(F)F)c(S(=O)(=O)O)c-2oc2c(S(=O)(=O)O)c(NCC(F)(F)F)ccc12 [Compound 16a]
Response: 517

Request: O=C1OC2(c3cc(F)c(NCC(F)(F)F)cc3Oc3cc(NCC(F)(F)F)c(F)cc32)c2ccccc21 [Compound 18]
Response: 500

Request: And then O=C(O)c1ccc2c(c1)C1(OC2=O)c2ccc(NCC(F)(F)F)cc2Oc2cc(NCC(F)(F)F)ccc21 [15 (42-COOH)] , what is it?
Response: 500

----------
Experiment: Spectral properties of the fluorinated rhodamines (absorption, emission, quantum yield, lifetime)
Assay type: physicochemical
Details: aqueous buffer at pH 7
Recorded measurements of ABSORPTION ε, one per entry
Output spec: scalar in M⁻¹ cm⁻¹, unitless text.

These recorded examples may help you get a feel for the data.
> print(dat)
                                   molecule  recorded.measurement
1  CN(CCC(=O)O)C(=O)c1ccccc1-c1c2ccc(=NCC(F)(F)F)cc-2oc2cc(NCC(F)(F)F)ccc12.Cl [Compound 14a]                 57000
2  CN(C)c1cc2c(cc1F)C1(OC(=O)c3ccccc31)c1cc(F)c(N(C)C)cc1O2 [Compound 27]                 50000
3  O=C(O)c1ccc2c(c1)C1(OC2=O)c2ccc(NCC(F)(F)F)cc2Oc2cc(NCC(F)(F)F)ccc21 [15 (42-COOH)]                 85000

Request: Look up ABSORPTION ε: O=C(O)c1ccc2c(c1)C1(OC2=O)c2ccc(NCC(F)(F)F)cc2Oc2cc(NCC(F)(F)F)ccc21 [15 (43-COOH)]
Response: 88000

Where do the numbers come from? From patent US8735444B2.
